Just for reference, patent US20250170076A1 is where these values come from.

assay: clinical; details: human, in vivo, sc, 50 mg, Cmax/C4 h
Recorded Metric: Cmax at 4 h (ng/mL)
Please state the figure in ng/mL; there is no need to write the unit.

Data request, read-out Cmax at 4 h, for N[C@@H](Cc1ccc(O)c(O)c1)C(=O)O
443

###

experiment: clinical; details: human, in vivo, sc, T1/2
Recorded Metric: half-life (h)
Write the value in h as a bare number.

Give its half-life value. Item: N[C@@H](Cc1ccc(O)c(O)c1)C(=O)O [levodopa]
4.1

###

test: clinical; settings: male, human, in vivo, iv, 50 mg
Recorded Metric: half-life (min)
Use min as the unit, but write only the number.

Please look up its half-life: N[C@@H](Cc1ccc(O)c(O)c1)C(=O)O
75.6

###

assay: clinical; details: male, human, in vivo, iv, Cl
Recorded Metric: clearance
Express the reported value numerically, then name its unit.

Sample N[C@@H](Cc1ccc(O)c(O)c1)C(=O)O — what was its clearance?
9.8 mL/min/kg

###

assay: clinical; conditions: male, human, in vivo, iv
Recorded Metric: clearance (mL/min/kg)
Value expressed in mL/min/kg; do not type the unit.

Would you kindly share the measured clearance for N[C@@H](Cc1ccc(O)c(O)c1)C(=O)O ?
10

###

assay: clinical; settings: male, human, in vivo, sc, Tmax
Recorded Metric: Tmax (h)
Response body: numeric value in h, unit text excluded.

Name the recorded Tmax for N[C@@H](Cc1ccc(O)c(O)c1)C(=O)O .
4
